- target.desc: D168A mutant of the HCV NS3/4A 1b protease enzyme (Hepatitis C virus genotype 1b, UniProt P26663, D1194A)
- Construct: 10× stocks of NS3/4A protease enzyme from Bioenza (Mountain View, Calif.); purchased Bioenza (Mountain View, Calif.)
- method.summary: HCV Protease FRET Assay (IC50_APP), D168A mutant
- Type: biochemical
- stated.conditions: apparent IC50, D168A mutant; read-out: IC50_APP, HCV D168A
pIC50: −log10 of the molar value.
assay.endpoint: pIC50

Solved cases (5 shown):
compound | pIC50
C=CC(=O)NCC(=O)N1C[C@H](Oc2cc(-c3ccccc3)nc3cc(OC)ccc23)C[C@H]1C(=O)N[C@]1(C(=O)NS(=O)(=O)c2ccccc2)C[C@H]1C=C | 6.00 to 7.00
C=C[C@@H]1C[C@]1(NC(=O)[C@@H]1C[C@@H](Oc2cc(-c3ccccc3)nc3cc(OC)ccc23)CN1C(=O)C(CN(C)C(=O)C#CC)NC(=O)OC(C)(C)C)C(=O)NS(=O)(=O)c1ccccc1 (stereo in doubt) | 5.00 to 6.00
C=CC(=O)N(C)C[C@H](NC(=O)OC(C)(C)C)C(=O)N1C[C@H](Oc2cc(-c3ccccc3)nc3cc(OC)ccc23)C[C@H]1C(=O)N[C@]1(C(=O)NS(=O)(=O)c2ccccc2)C[C@H]1C=C | 5.00 to 6.00
C=C[C@@H]1C[C@]1(NC(=O)[C@@H]1C[C@@H](Oc2nccc3cc(OC)ccc23)CN1C(=O)[C@H](CCC(=O)C#Cc1ccccc1)NC(=O)OC(C)(C)C)C(=O)NS(=O)(=O)C1CC1 | 7.00 to 8.00
C=C[C@@H]1C[C@]1(NC(=O)[C@@H]1C[C@@H](Oc2nccc3cc(OC)ccc23)CN1C(=O)[C@H](CCC(=O)/C=C/c1ccccc1)NC(=O)OC(C)(C)C)C(=O)NS(=O)(=O)C1CC1 | 5.00 to 6.00

pIC50 reading for "C=CC(=O)O[C@H](C)[C@H](NC(=O)OC(C)(C)C)C(=O)N1C[C@H](Oc2cc(-c3ccccc3)nc3cc(OC)ccc23)C[C@H]1C(=O)N[C@]1(C(=O)NS(=O)(=O)C2CC2)C[C@H]1C=C" : 7.00 to 8.00

Sure, the documented pIC50 for "C=C[C@@H]1C[C@]1(NC(=O)[C@@H]1C[C@@H](Oc2nccc3cc(OC)ccc23)CN1C(=O)[C@@H](C)NC(=O)CC)C(=O)NS(=O)(=O)C1CC1" is 5.00 to 6.00

Value of pIC50 reported for the compound "C=CC(=O)N[C@@H](C(=O)N1C[C@H](Oc2nccc3cc(OC)ccc23)C[C@H]1C(=O)N[C@]1(C(=O)NS(=O)(=O)C2CC2)C[C@H]1C=C)C(C)C" is 6.00 to 7.00

Documented pIC50 of C=C[C@@H]1C[C@]1(NC(=O)[C@@H]1CC(Oc2cc(-c3ccccc3)nc3cc(OC)ccc23)CN1C(=O)OC(C)(C)C)C(=O)NS(=O)(=O)C1CC1 (stereo partly shown) : 5.00 to 6.00

In plain terms, "C=CC(=O)N(C)C[C@H](NC(=O)OC(C)(C)C)C(=O)N1C[C@H](Oc2nccc3ccc(Br)cc23)C[C@H]1C(=O)N[C@]1(C(=O)NS(=O)(=O)C2CC2)C[C@H]1C=C" has a documented pIC50 of 6.00 to 7.00
